- assayNotes: clinical
- assayContext: human, in vivo, po, T1/2
parameter: half-life (min)
Numbers only, in min.

molecule: C[C@H]1O[C@@H](n2cc(F)c(=O)[nH]c2=O)[C@H](O)[C@@H]1O [5′-DFUR, 5′-deoxy-5-fluorouridine]
resultUnit: min
half-life: 43.2

Query molecule follows.
[in] Quick check: half-life of CCCCCOC(=O)Nc1nc(=O)n([C@@H]2O[C@H](C)[C@@H](O)[C@H]2O)cc1F [capecitabine, reference compound] ?
[out] 31.2

---

- assayNotes: Plasma pharmacokinetics of EKB-569 and its N-desmethyl metabolite at the MTD
- assayContext: human, plasma, po
parameter: half-life

[in] Any idea what its half-life is? The compound is CCOc1cc2ncc(C#N)c(Nc3ccc(F)c(Cl)c3)c2cc1NC(=O)/C=C/CN(C)C [EKB-569]
[out] 16.6 h
